Species on record: Rattus norvegicus
Test: Open TG-GATES - Regimen: Daily Repeat
Assay type: toxicity, organism-based, Sprague-Dawley
Parameters: regimen Daily Repeat, gender Male, age 6 weeks
Details: in vivo, po, 300 mg/kg, […], tissue Kidney, route gavage, dose level Middle, time 14 day
Outcome Measure: KIDNEY_R (g)
One number for each entry, in g.

| Molecule | Outcome Measure | Recorded Number |
| --- | --- | --- |
| NC(N)=Nc1nc(CSCCC(N)=NS(N)(=O)=O)cs1 [FAMOTIDINE] | KIDNEY_R | 1.2 |
| CCOC(=O)CCC(=O)O[C@H]1[C@H](O[C@@H]2[C@@H](C)[C@H](O[C@H]3C[C@@](C)(OC)[C@@H](O)[C@H](C)O3)[C@@H](C)C(=O)O[C@H](CC)[C@@](C)(O)[C@H](O)[C@@H](C)C(=O)[C@H](C)C[C@@]2(C)O)O[C@H](C)C[C@@H]1N(C)C [ERYTHROMYCIN ETHYLSUCCINATE] | KIDNEY_R | 1.3 |
| CCOc1ccc(NC(=O)CC(C)O)cc1 (stereo not given) [BUCETIN] | KIDNEY_R | 1.4 |
| COc1ccc2[nH]c([S+]([O-])Cc3ncc(C)c(OC)c3C)nc2c1 (stereo not given) [OMEPRAZOLE] | KIDNEY_R | 1.3 |

Lab note: next molecule to report on.
Any idea what its KIDNEY_R is? The molecule is COC1=CC(=O)C[C@@H](C)[C@]12Oc1c(Cl)c(OC)cc(OC)c1C2=O [GRISEOFULVIN] 1.3

====

Species on record: Rattus norvegicus
Experiment: Open TG-GATES - Regimen: Single
Format: toxicity, organism-based, Sprague-Dawley
Set-up: regimen Single, gender Male, age 6 weeks
Settings: in vivo, po, 0 mg/kg, 24 h, tissue Plasma, route gavage, dose level Control
Outcome Measure: TP (g/dL)
Give bare numbers, in g/dL.

| Compound | TP [g/dL] |
| --- | --- |
| CN1C(=O)CN=C(c2ccccc2)c2cc(Cl)ccc21 | 5.8 |
| CN(C)CCN(Cc1cccs1)c1ccccn1 | 5.4 |
| CCCNC(=O)NS(=O)(=O)c1ccc(Cl)cc1 [CHLORPROPAMIDE] | 5.6 |
| CC1=C(/C=C/C(C)=C/C=C/C(C)=C/CO)C(C)(C)CCC1 | 5.5 |
| CCOc1ccc(NC(=O)CC(C)O)cc1 (stereo not drawn) | 5.6 |

# batch: return TP for each of the 6 compounds below
1. NNC(=O)c1ccncc1
2. C[C@@H]1C[C@H]2[C@@H]3CCC4=CC(=O)C=C[C@]4(C)[C@@]3(F)[C@@H](O)C[C@]2(C)[C@@]1(O)C(=O)CO
3. CCOC(=O)CCC(=O)O[C@H]1[C@H](O[C@@H]2[C@@H](C)[C@H](O[C@H]3C[C@@](C)(OC)[C@@H](O)[C@H](C)O3)[C@@H](C)C(=O)O[C@H](CC)[C@@](C)(O)[C@H](O)[C@@H](C)C(=O)[C@H](C)C[C@@]2(C)O)O[C@H](C)C[C@@H]1N(C)C [ERYTHROMYCIN ETHYLSUCCINATE]
4. CN(C)CCCN1c2ccccc2CCc2ccccc21
5. Cc1ccc(C)c(OCCCC(C)(C)C(=O)O)c1
6. COc1ccc2[nH]c([S+]([O-])Cc3ncc(C)c(OC)c3C)nc2c1 (stereo not drawn)

1. 5.6
2. 5.7
3. 5.4
4. 5.6
5. 5.6
6. 5.5

Batch of 7 compounds: report TP for each.
1. NC(N)=Nc1nc(CSCCC(N)=NS(N)(=O)=O)cs1
2. COC1=CC(=O)C[C@@H](C)[C@]12Oc1c(Cl)c(OC)cc(OC)c1C2=O
3. CC/C(=C(\c1ccccc1)c1ccc(OCCN(C)C)cc1)c1ccccc1
4. CN(C)CCCN1c2ccccc2CCc2ccc(Cl)cc21
5. COc1cc2c(c(OC)c1OC)-c1ccc(OC)c(=O)cc1[C@@H](NC(C)=O)CC2
6. O=C(CCCN1CCC(O)(c2ccc(Cl)cc2)CC1)c1ccc(F)cc1
7. CC(C)OC(=O)C(C)(C)Oc1ccc(C(=O)c2ccc(Cl)cc2)cc1 [FENOFIBRATE]

5.7
5.4
5.5
5.5
5.7
5.7
5.6
